assay_overview: Cytotoxicity against mouse RAW264.7 cells assessed as cell viability at 6.25 microg/ml incubated for 24 hrs by CCK8 assay relative to control
Assay type: toxicity, cell-based
experimental_setup: at 6.25 µg/mL, read-out: Activity
endpoint_label: viability at 24 h, 6.25 microg/ml (%)
Value expressed in %; do not type the unit.

Q. What value of viability at 24 h, 6.25 microg/ml has been reported for the following compound? O=C1c2ccccc2-[n+]2ccc3c([nH]c4ccc(-c5ccccc5C(F)(F)F)cc43)c21.[Cl-]
A. 57

----------
A collection of molecules and their measured MBC
System: Escherichia coli
assay_overview: Bactericidal activity against penicillin-susceptible Escherichia coli ATCC25922 incubated for 24 hrs by CLSI protocol based microbroth dilution method
Type: functional
Value expressed in µg/mL; do not type the unit.

// below: answered molecules
{"molecule": "O=C1c2ccccc2-[n+]2ccc3c([nH]c4ccc(-c5ccccc5F)cc43)c21.[Cl-]", "unit_annotation": "µg/mL", "MBC": 6.25}
{"molecule": "O=C1c2ccccc2-[n+]2ccc3c([nH]c4ccc(-c5ccccc5C(F)(F)F)cc43)c21.[Cl-]", "unit_annotation": "µg/mL", "MBC": 50}

Q. What value of MBC has been reported for the following molecule? O=C1c2ccccc2-[n+]2ccc3c([nH]c4ccccc43)c21 [FASCAPLYSIN]
A. 25

Q. What value of MBC has been reported for the following molecule? CN[C@H](CC(C)C)C(=O)N[C@H]1C(=O)N[C@@H](CC(N)=O)C(=O)N[C@H]2C(=O)N[C@H]3C(=O)N[C@H](C(=O)N[C@H](C(=O)O)c4cc(O)cc(O)c4-c4cc3ccc4O)[C@H](O)c3ccc(c(Cl)c3)Oc3cc2cc(c3O[C@@H]2O[C@H](CO)[C@@H](O)[C@H](O)[C@H]2O[C@H]2C[C@](C)(N)[C@H](O)[C@H](C)O2)Oc2ccc(cc2Cl)[C@H]1O [VANCOMYCIN]
A. 3.12

Q. What value of MBC has been reported for the following molecule? O=C1c2ccccc2-[n+]2ccc3c([nH]c4ccc(-c5ccccc5Cl)cc43)c21.[Cl-]
A. 50

----------
System: Streptococcus pneumoniae
assay_overview: Antibacterial activity against Streptococcus pneumoniae ATCC49619 assessed as inhibition of bacterial growth incubated for 18 hrs by CLSI protocol based microbroth dilution method
Type: functional
endpoint_label: MIC (µg/mL)
Value expressed in µg/mL; do not type the unit.

// below: answered molecules
{"smi": "O=C1c2ccccc2-[n+]2ccc3c([nH]c4ccc(-c5ccc(F)cc5F)cc43)c21.[Cl-]", "MIC / µg/mL": 0.195}
{"smi": "CN[C@H](CC(C)C)C(=O)N[C@H]1C(=O)N[C@@H](CC(N)=O)C(=O)N[C@H]2C(=O)N[C@H]3C(=O)N[C@H](C(=O)N[C@H](C(=O)O)c4cc(O)cc(O)c4-c4cc3ccc4O)[C@H](O)c3ccc(c(Cl)c3)Oc3cc2cc(c3O[C@@H]2O[C@H](CO)[C@@H](O)[C@H](O)[C@H]2O[C@H]2C[C@](C)(N)[C@H](O)[C@H](C)O2)Oc2ccc(cc2Cl)[C@H]1O", "MIC / µg/mL": 1.56}
{"smi": "COc1ccc(-c2ccc3[nH]c4c5[n+](ccc4c3c2)-c2ccccc2C5=O)cc1.[Cl-]", "MIC / µg/mL": 0.195}
{"smi": "CCc1ccc(-c2ccc3[nH]c4c5[n+](ccc4c3c2)-c2ccccc2C5=O)cc1.[Cl-]", "MIC / µg/mL": 0.195}

Q. What value of MIC has been reported for the following molecule? O=C1c2ccccc2-[n+]2ccc3c([nH]c4ccc(-c5ccccc5)cc43)c21.[Cl-]
A. 0.195

Q. What value of MIC has been reported for the following molecule? O=C1c2ccccc2-[n+]2ccc3c([nH]c4ccc(-c5ccccc5C(F)(F)F)cc43)c21.[Cl-]
A. 0.195

----------
Tested on: Staphylococcus aureus
assay_overview: Bactericidal activity against methicillin-resistant Staphylococcus aureus ATCC43300 incubated for 24 hrs by CLSI protocol based microbroth dilution method
Assay type: functional
endpoint_label: MBC
Report the figure along with its unit, number first.

// below: answered compounds
{"smi": "O=C1c2ccccc2-[n+]2ccc3c([nH]c4ccc(-c5ccccc5C(F)(F)F)cc43)c21.[Cl-]", "measurement_target": "Staphylococcus aureus", "value_observed": "1.56 µg/mL"}
{"smi": "O=C1c2ccccc2-[n+]2ccc3c([nH]c4ccc(-c5ccccc5F)cc43)c21.[Cl-]", "measurement_target": "Staphylococcus aureus", "value_observed": "0.195 µg/mL"}
{"smi": "O=C1c2ccccc2-[n+]2ccc3c([nH]c4ccc(-c5ccccc5Cl)cc43)c21.[Cl-]", "measurement_target": "Staphylococcus aureus", "value_observed": "1.56 µg/mL"}
{"smi": "CN[C@H](CC(C)C)C(=O)N[C@H]1C(=O)N[C@@H](CC(N)=O)C(=O)N[C@H]2C(=O)N[C@H]3C(=O)N[C@H](C(=O)N[C@H](C(=O)O)c4cc(O)cc(O)c4-c4cc3ccc4O)[C@H](O)c3ccc(c(Cl)c3)Oc3cc2cc(c3O[C@@H]2O[C@H](CO)[C@@H](O)[C@H](O)[C@H]2O[C@H]2C[C@](C)(N)[C@H](O)[C@H](C)O2)Oc2ccc(cc2Cl)[C@H]1O", "measurement_target": "Staphylococcus aureus", "value_observed": "1 µg/mL"}

Here is another compound to look at.
Q. What value of MBC has been reported for the following compound? O=C1c2ccccc2-[n+]2ccc3c([nH]c4ccccc43)c21
A. 1.56 µg/mL

----------
System: Streptococcus pneumoniae
assay_overview: Antibacterial activity against Streptococcus pneumoniae ATCC49619 assessed as inhibition of bacterial growth incubated for 18 hrs by CLSI protocol based microbroth dilution method
Assay type: functional
A collection of compounds and their measured MIC
Value expressed in µg/mL; do not type the unit.

// below: answered compounds
{"smi": "Cc1ccc(-c2ccc3[nH]c4c5[n+](ccc4c3c2)-c2ccccc2C5=O)cc1.[Cl-]", "unit_annotation": "µg/mL", "value_observed": 0.195}
{"smi": "O=C1c2ccccc2-[n+]2ccc3c([nH]c4ccc(-c5ccc(F)cc5)cc43)c21.[Cl-]", "unit_annotation": "µg/mL", "value_observed": 0.195}
{"smi": "COc1cccc(-c2ccc3[nH]c4c5[n+](ccc4c3c2)-c2ccccc2C5=O)c1.[Cl-]", "unit_annotation": "µg/mL", "value_observed": 0.39}
{"smi": "O=C1c2ccccc2-[n+]2ccc3c([nH]c4ccc(-c5ccc(Cl)cc5)cc43)c21.[Cl-]", "unit_annotation": "µg/mL", "value_observed": 0.39}
{"smi": "Cc1ccc(-c2ccc3[nH]c4c5[n+](ccc4c3c2)-c2ccccc2C5=O)cc1C.[Cl-]", "unit_annotation": "µg/mL", "value_observed": 0.78}
{"smi": "Cc1cccc(-c2ccc3[nH]c4c5[n+](ccc4c3c2)-c2ccccc2C5=O)c1.[Cl-]", "unit_annotation": "µg/mL", "value_observed": 0.195}

Q. What value of MIC has been reported for the following compound? CCCc1ccc(-c2ccc3[nH]c4c5[n+](ccc4c3c2)-c2ccccc2C5=O)cc1.[Cl-]
A. 0.195

Q. What value of MIC has been reported for the following compound? O=C1c2ccccc2-[n+]2ccc3c([nH]c4ccc(-c5cc(F)cc(F)c5)cc43)c21.[Cl-]
A. 0.195

Q. What value of MIC has been reported for the following compound? O=C1c2ccccc2-[n+]2ccc3c([nH]c4ccc(-c5ccccc5Cl)cc43)c21.[Cl-]
A. 0.195

Q. What value of MIC has been reported for the following compound? O=C1c2ccccc2-[n+]2ccc3c([nH]c4ccc(-c5cccc(Cl)c5)cc43)c21.[Cl-]
A. 0.195

Q. What value of MIC has been reported for the following compound? O=C1c2ccccc2-[n+]2ccc3c([nH]c4ccc(-c5ccccc5F)cc43)c21.[Cl-]
A. 0.195

Q. What value of MIC has been reported for the following compound? O=C1c2ccccc2-[n+]2ccc3c([nH]c4ccc(-c5ccc(C(F)(F)F)cc5)cc43)c21.[Cl-]
A. 1.56

Q. What value of MIC has been reported for the following compound? CCCCc1ccc(-c2ccc3[nH]c4c5[n+](ccc4c3c2)-c2ccccc2C5=O)cc1.[Cl-]
A. 0.78
